Assignment: determine reported AUC(0-t) for the given compounds.
testSummary: Single dose oral pharmacokinetic study
Assay type: in vivo, mice
setupConditions: mouse, plasma; Mice oral PK @30 mg/kg (Table 3)
Protocol: The test item was administered through oral route to animals (rat/mice) at 30 mg/kg dose in a suitable vehicle at 10 ml/kg dose volume. Blood samples (˜50 uL at each time point) were collected from retro-orbital plexus using K3 EDTA as anticoagulant in eppendorf tubes at defined time intervals under light ether anesthesia. […] Sample analysis: Test samples were analyzed using LC-MS-MS after developing fit-for-purpose method for each of test compound.
Numbers only, in ng·h/mL.

Guide cases for AUC(0-t), answers given:
CC(C)(CC(=O)O)CC(=O)O[C@H]1CC[C@]2(C)[C@H]3CC[C@@H]4[C@H]5[C@H](C6(C)CC6)CC[C@]5(C(=O)N5CCC[C@H]5c5ncc(-c6ccccc6)[nH]5)CC[C@@]4(C)[C@]3(C)CC[C@H]2C1(C)C : 156000
C=C(C)[C@@H]1CC[C@]2(C(=O)N3CCC[C@@H]3c3nc(-c4cccnc4)no3)CC[C@]3(C)[C@H](CC[C@@H]4[C@@]5(C)CC[C@H](OC(=O)CC(C)(C)CC(=O)O)C(C)(C)[C@@H]5CC[C@]43C)[C@@H]12 : 36900
C=C(C)[C@@H]1CC[C@]2(C(=O)N3CCC[C@H]3c3ncc(-c4cccnc4)[nH]3)CC[C@]3(C)[C@H](CC[C@@H]4[C@@]5(C)CC[C@H](OC(=O)CC(C)(C)CC(=O)O)C(C)(C)[C@@H]5CC[C@]43C)[C@@H]12 : 59500

Now turn to the next compound.
Reported AUC(0-t) of "C=C(C)[C@@H]1CC[C@]2(C(=O)N3CCC[C@H]3c3ncc(-c4cccnc4)[nH]3)CC[C@]3(C)[C@H](CC[C@@H]4[C@@]5(C)CC[C@H](OC(=O)CC(C)(C)C(=O)O)C(C)(C)[C@@H]5CC[C@]43C)[C@@H]12" : 40500

---

testSummary: Single dose oral pharmacokinetic study
Format: in vivo, mice
setupConditions: mouse, plasma; Mice oral PK @30 mg/kg (Table 3)
Binarize Cmax at 8 µg/mL; below is Y, at or above is N.

Here's what some known entries look like.
CC(C)(CC(=O)O)CC(=O)O[C@H]1CC[C@]2(C)[C@H]3CC[C@@H]4[C@H]5[C@H](C6(C)CC6)CC[C@]5(C(=O)N5CCC[C@H]5c5ncc(-c6ccccc6)[nH]5)CC[C@@]4(C)[C@]3(C)CC[C@H]2C1(C)C [Compound 13] : N
C=C(C)[C@@H]1CC[C@]2(C(=O)N3CCC[C@H]3c3ncc(-c4cccnc4)[nH]3)CC[C@]3(C)[C@H](CC[C@@H]4[C@@]5(C)CC[C@H](OC(=O)CC(C)(C)CC(=O)O)C(C)(C)[C@@H]5CC[C@]43C)[C@@H]12 [Compound 11] : Y
C=C(C)[C@@H]1CC[C@]2(C(=O)N3CCC[C@H]3c3ncc(-c4ccccc4)[nH]3)CC[C@]3(C)[C@H](CC[C@@H]4[C@@]5(C)CC[C@H](OC(=O)CC(C)(C)C(=O)O)C(C)(C)[C@@H]5CC[C@]43C)[C@@H]12 [Compound 8] : N
C=C(C)[C@@H]1CC[C@]2(C(=O)N3CCC[C@H]3c3ncc(-c4ccccc4)[nH]3)CC[C@]3(C)[C@H](CC[C@@H]4[C@@]5(C)CC[C@H](OC(=O)CC(C)(C)CC(=O)O)C(C)(C)[C@@H]5CC[C@]43C)[C@@H]12 [Compound 9] : Y

Strictly below 8 µg/mL: is that where Cmax of C=C(C)[C@@H]1CC[C@]2(C(=O)N3CCC[C@@H]3c3nc(-c4cccnc4)no3)CC[C@]3(C)[C@H](CC[C@@H]4[C@@]5(C)CC[C@H](OC(=O)CC(C)(C)CC(=O)O)C(C)(C)[C@@H]5CC[C@]43C)[C@@H]12 [Compound 4] sits?
Y

A record lists C=C(C)[C@@H]1CC[C@]2(C(=O)N3CCC[C@@H]3c3nc(-c4ccccc4)no3)CC[C@]3(C)[C@H](CC[C@@H]4[C@@]5(C)CC[C@H](OC(=O)CC(C)(C)C(=O)O)C(C)(C)[C@@H]5CC[C@]43C)[C@@H]12 [Compound 1] . Is its Cmax below 8 µg/mL?
N

---

testSummary: Single dose oral pharmacokinetic study
Assay type: in vivo, mice
setupConditions: mouse, plasma; Mice oral PK @30 mg/kg (Table 3)
Give Tmax for every item shown.
Give bare numbers, in h.

Known results for compounds:
C=C(C)[C@@H]1CC[C@]2(C(=O)N3CCC[C@@H]3c3nc(-c4cccnc4)no3)CC[C@]3(C)[C@H](CC[C@@H]4[C@@]5(C)CC[C@H](OC(=O)CC(C)(C)C(=O)O)C(C)(C)[C@@H]5CC[C@]43C)[C@@H]12 [Compound 3] : 1.75
C=C(C)[C@@H]1CC[C@]2(C(=O)N3CCC[C@@H]3c3nc(-c4cccnc4)no3)CC[C@]3(C)[C@H](CC[C@@H]4[C@@]5(C)CC[C@H](OC(=O)CC(C)(C)CC(=O)O)C(C)(C)[C@@H]5CC[C@]43C)[C@@H]12 [Compound 4] : 2.5
C=C(C)[C@@H]1CC[C@]2(C(=O)N3CCC[C@H]3c3ncc(-c4cccnc4)[nH]3)CC[C@]3(C)[C@H](CC[C@@H]4[C@@]5(C)CC[C@H](OC(=O)CC(C)(C)C(=O)O)C(C)(C)[C@@H]5CC[C@]43C)[C@@H]12 [Compound 10] : 1.13

Pending compound:
Reported Tmax ( C=C(C)[C@@H]1CC[C@]2(C(=O)N3CCC[C@@H]3c3nc(-c4ccccc4)no3)CC[C@]3(C)[C@H](CC[C@@H]4[C@@]5(C)CC[C@H](OC(=O)CC(C)(C)C(=O)O)C(C)(C)[C@@H]5CC[C@]43C)[C@@H]12 [Compound 1] ) = 6

---

testSummary: Single dose oral pharmacokinetic study
Assay type: in vivo, mice
setupConditions: mouse, plasma; Mice oral PK @30 mg/kg (Table 4)
recordedEndpoint: log10 of half-life (log10 of the value in h)
Recall that a logarithmic scale is used here: each number is log10 of half-life in h.

C=C(C)[C@@H]1CC[C@]2(C(=O)N3CCC[C@H]3c3ncc(-c4ccccc4)[nH]3)CC[C@]3(C)[C@H](CC[C@@H]4[C@@]5(C)CC[C@H](OC(=O)[C@@H]6C[C@H](C(=O)O)C6(C)C)C(C)(C)[C@@H]5CC[C@]43C)[C@@H]12 : 1.58
C=C(C)[C@@H]1CC[C@]2(C(=O)N3CCC[C@H]3c3ncc(-c4ccc(F)cc4)[nH]3)CC[C@]3(C)[C@H](CC[C@@H]4[C@@]5(C)CC[C@H](OC(=O)C6CC(C(=O)O)C6(C)C)C(C)(C)[C@@H]5CC[C@]43C)[C@@H]12 (stereo partly shown) : 1.53
CC1(C)C(C(=O)O)CC1C(=O)O[C@H]1CC[C@]2(C)[C@H]3CC[C@@H]4[C@H]5[C@H](C6(C)CC6)CC[C@]5(C(=O)N5CCC[C@H]5c5ncc(-c6ccccc6)[nH]5)CC[C@@]4(C)[C@]3(C)CC[C@H]2C1(C)C (stereo partly shown) : 1.75

# per-item lookup of log10 of half-life; items listed below
1. CC(C)(CC(=O)O[C@H]1CC[C@]2(C)[C@H]3CC[C@@H]4[C@H]5[C@H](C6(C)CC6)CC[C@]5(C(=O)N5CCC[C@H]5c5ncc(-c6cccnc6)[nH]5)CC[C@@]4(C)[C@]3(C)CC[C@H]2C1(C)C)C(=O)O
2. C=C(C)[C@@H]1CC[C@]2(C(=O)N3CCCC3c3ncc(-c4ccc(OC)cc4)[nH]3)CC[C@]3(C)[C@H](CC[C@@H]4[C@@]5(C)CC[C@H](OC(=O)[C@H]6C[C@@H](C(=O)O)C6(C)C)C(C)(C)[C@@H]5CC[C@]43C)[C@@H]12 (stereo partly shown)
3. CC(C)(CC(=O)O[C@H]1CC[C@]2(C)[C@H]3CC[C@@H]4[C@H]5[C@H](C6(C)CC6)CC[C@]5(C(=O)N5CCC[C@H]5c5ncc(-c6cccs6)[nH]5)CC[C@@]4(C)[C@]3(C)CC[C@H]2C1(C)C)C(=O)O
4. C=C(C)[C@@H]1CC[C@]2(C(=O)N3CCC[C@H]3c3ncc(-c4ccc(O)cc4)[nH]3)CC[C@]3(C)[C@H](CC[C@@H]4[C@@]5(C)CC[C@H](OC(=O)C6CC(C(=O)O)C6(C)C)C(C)(C)[C@@H]5CC[C@]43C)[C@@H]12 (stereo partly shown)

1: 0.23; 2: 1.49; 3: 1.09; 4: 1.48

---

Test system: HIV-1 strain 92HT599
testSummary: Antiviral activity: p24 estimation in MT2 cells infected with HIV-1 strain 92HT599
Assay type: cell-based
setupConditions: Human immunodeficiency virus 1, 1000 nM, HIV-1 92HT599, p24, ~96 hours
recordedEndpoint: inhibition at 1 µM (%)
Give bare numbers, in %.

C=C(C)[C@@H]1CC[C@]2(C(=O)N3CCC[C@H]3c3ncc(-c4cccnc4)[nH]3)CC[C@]3(C)[C@H](CC[C@@H]4[C@@]5(C)CC[C@H](OC(=O)CC(C)(C)CC(=O)O)C(C)(C)[C@@H]5CC[C@]43C)[C@@H]12 : 100
CC(C)(CC(=O)O)CC(=O)O[C@H]1CC[C@]2(C)[C@H]3CC[C@@H]4[C@H]5[C@H](C6(C)CC6)CC[C@]5(C(=O)N5CCC[C@H]5c5ncc(-c6ccccc6)[nH]5)CC[C@@]4(C)[C@]3(C)CC[C@H]2C1(C)C : 100
C=C(C)[C@@H]1CC[C@]2(C(=O)N3CCC[C@H]3c3ncc(-c4cccnc4)[nH]3)CC[C@]3(C)[C@H](CC[C@@H]4[C@@]5(C)CC[C@H](OC(=O)CC(C)(C)C(=O)O)C(C)(C)[C@@H]5CC[C@]43C)[C@@H]12 : 100

Batch: inhibition at 1 µM for all items listed.
1. C=C(C)[C@@H]1CC[C@]2(C(=O)N3CCC[C@H]3c3ncc(-c4ccccc4)[nH]3)CC[C@]3(C)[C@H](CC[C@@H]4[C@@]5(C)CC[C@H](OC(=O)[C@H]6C[C@@H](C(=O)O)C6(C)C)C(C)(C)[C@@H]5CC[C@]43C)[C@@H]12
2. C=C(C)[C@@H]1CC[C@]2(C(=O)N3CCC[C@@H]3c3nc(-c4ccccc4)no3)CC[C@]3(C)[C@H](CC[C@@H]4[C@@]5(C)CC[C@H](OC(=O)CC(C)(C)CC(=O)O)C(C)(C)[C@@H]5CC[C@]43C)[C@@H]12
3. C=C(C)[C@@H]1CC[C@]2(C(=O)N3CCC[C@H]3c3ncc(-c4ccc([N+](=O)[O-])cc4)[nH]3)CC[C@]3(C)[C@H](CC[C@@H]4[C@@]5(C)CC[C@H](OC(=O)[C@H]6C[C@@H](C(=O)O)C6(C)C)C(C)(C)[C@@H]5CC[C@]43C)[C@@H]12
4. C=C(C)[C@@H]1CC[C@]2(C(=O)N3CCC[C@@H]3c3nc(-c4cccnc4)no3)CC[C@]3(C)[C@H](CC[C@@H]4[C@@]5(C)CC[C@H](OC(=O)CC(C)(C)CC(=O)O)C(C)(C)[C@@H]5CC[C@]43C)[C@@H]12
5. C=C(C)[C@@H]1CC[C@]2(C(=O)N3CCC[C@@H]3c3nc(-c4cccnc4)no3)CC[C@]3(C)[C@H](CC[C@@H]4[C@@]5(C)CC[C@H](OC(=O)CC(C)(C)C(=O)O)C(C)(C)[C@@H]5CC[C@]43C)[C@@H]12

100
90
100
96
100
